test system: Porcine Atria myofibrils; assay: Myofibril ATPase assay (PK/LDH NADH-coupled), atria myofibrils; type: biochemical; settings: Table 8
Measured Quantity: Porcine Atria IC25 (nM)

Below: 4 compounds and their reported Porcine Atria IC25.
- C[C@@H](NC(=O)CN1C(=O)Nc2ccccc2[C@@H]1C)c1ncc(F)cc1F: 100000
- C[C@@H](NC(=O)CN1Cc2c(ccc(F)c2F)NC1=O)c1ccc(C(F)(F)F)cn1: 100000
- C[C@@H](NC(=O)CN1Cc2c(F)cc(F)cc2NC1=O)c1ccc(C#N)cc1F: 590
- Cc1nc(C#N)cnc1[C@@H](C)NC(=O)CN1C(=O)Nc2ccc(F)cc2C12CC2: 80

[a] CC(NC(=O)CN1Cc2cc(F)ccc2NC1=O)c1ccccc1Br (centres unmarked)
[b] Cc1cc(C#N)cnc1[C@@H](C)NC(=O)CN1Cc2c(ccc(F)c2F)NC1=O
[c] C[C@H](C(=O)N[C@H](CO)c1ncc(F)cc1F)N1Cc2c(Cl)cccc2NC1=O
[d] C[C@@H](NC(=O)CN1Cc2c(C#N)cccc2NC1=O)c1ncc(F)cc1F
(Q) Given 4 compounds, produce a descending ranking by Porcine Atria IC25. Could you list the labels in the order requested?
(A) c, d, b, a

[P] C[C@H](NC(=O)C(C)(C)N1Cc2c(ccc(F)c2F)NC1=O)c1ncc(C#N)cc1F
[Q] C[C@@H](NC(=O)CN1Cc2c(ccc(F)c2F)NC1=O)c1cc(C#N)c(F)cn1
[R] C[C@H](NC(=O)CN1Cc2cc(F)ccc2NC1=O)c1ncccc1F
[S] O=C(CN1Cc2cc(F)ccc2NC1=O)N[C@@H](CO)c1ccc(F)cc1F
(Q) Given 4 compounds, produce a descending ranking by Porcine Atria IC25. Could you list the labels in the order requested?
(A) R, S, Q, P
(R: 46540 nM, S: 8550 nM, Q: 420 nM, P: 180 nM)

[a] C[C@@H](NC(=O)CN1Cc2c(ccc(F)c2F)NC1=O)c1ccc2cnccc2n1
[b] COc1cccnc1[C@@H](C)NC(=O)CN1Cc2c(ccc(F)c2F)NC1=O
(Q) Compare a and b by numeric Porcine Atria IC25 and name the larger one. To answer, give the label that identifies your chosen option.
(A) b

Each recorded value in this set is attributed to patent US12509431B2.
